Test system: UMUC3
Test: Cytotoxicity against human UMUC3 cells assessed as reduction in cell growth by CCK8 assay
Format: functional, cell-based
METRIC NAME: pIC50
One number for each entry, as −log10 of the molar value.

// pIC50 lookup, key: `C=C1C(=O)[C@]23C[C@H]1C[C@@H](O)[C@H]2[C@@]12CO[C@@H](O)[C@@H]1C(C)(C)CC[C@@H]2OC3=O`
5.46
